# System: A-431
# MEASUREMENT_NOTES: Antiproliferative activity against human A431 cells after 48 hrs by MTT assay
# Assay type: functional, cell-based
# RECORDED_CONDITIONS: A-431, 48 h
Kindly state pIC50 for each of the entries shown.
In textbook form, pIC50 equals minus log to base ten of the concentration in mol/L.

Data point: O=C(CCCCCC(=O)Nc1ccc(O)c(C(=O)Nc2ccc(F)c(F)c2)c1)NO ; pIC50 = 5.40

Data point: C#Cc1cccc(NC(=O)c2cc(OCCCCCCC(=O)NO)ccc2O)c1 ; pIC50 = 5.73

Data point: O=C(CCCCCC(=O)Nc1ccc(O)c(C(=O)Nc2ccc(OCc3cccc(F)c3)c(Cl)c2)c1)NO ; pIC50 = 5.59

Data point: O=C(CCCCCC(=O)Nc1ccc(O)c(C(=O)Nc2ccccc2)c1)NO ; pIC50 = 5.23

###

# Test system: HL-60
# MEASUREMENT_NOTES: Antiproliferative activity against human HL60 cells after 48 hrs by MTT assay
# Format: functional, cell-based
# RECORDED_CONDITIONS: HL-60, 48 h
Kindly state IC50 for each of the entries shown.
Use µM as the unit, but write only the number.

Data point: C#Cc1cccc(NC(=O)c2cc(OCCCCCCC(=O)NO)ccc2O)c1 ; IC50 = 30.9

Data point: C#Cc1cccc(NC(=O)c2cc(NC(=O)CCCCCC(=O)NO)c(OC)cc2O)c1 ; IC50 = 28.6

###

Kindly state IC50 for each of the entries shown.
# Tested on: HL-60
# MEASUREMENT_NOTES: Antiproliferative activity against human HL60 cells after 48 hrs by MTT assay
# Type: functional, cell-based
# RECORDED_CONDITIONS: HL-60, 48 h

Data point: O=C(CCCCCC(=O)Nc1ccc(O)c(C(=O)Nc2ccc(Cl)c(Cl)c2)c1)NO ; IC50 = > 100 µM

Data point: C#Cc1cccc(NC(=O)c2cccc(NC(=O)CCCCCC(=O)NO)c2)c1 ; IC50 = > 100 µM

Data point: C#Cc1cccc(NC(=O)c2cc(NC(=O)CCCCCCC(=O)NO)ccc2O)c1 ; IC50 = > 100 µM

Data point: C#Cc1cccc(NC(=O)c2cc(NC(=O)CCCCCC(=O)NO)ccc2OC)c1 ; IC50 = 7.1 µM

###

Kindly state log10 IC50 for each of the entries shown.
# TARGET_DESC: Histone deacetylase
# MEASUREMENT_NOTES: Inhibition of HDAC derived from human HeLa cell nuclear extract using Boc-Lys(acetyl)-AMC as substrate incubated for 5 mins prior to substrate addition measured after 30 mins by fluorimetry
# Format: protein assay
Values reflect log10 of reported IC50 (µM).

Data point: O=C(CCCCCC(=O)Nc1ccc(O)c(C(=O)Nc2cccc(C(F)(F)F)c2)c1)NO ; log10 IC50 = 0.50

Data point: C#Cc1cccc(NC(=O)c2cc(OCCCCCCC(=O)NO)ccc2O)c1 ; log10 IC50 = 0.08

Data point: C#Cc1cccc(NC(=O)c2cc(NC(=O)CCCCCCC(=O)NO)ccc2O)c1 ; log10 IC50 = 0.31

Data point: COc1cc(O)c(C(=O)Nc2ccc(F)c(Cl)c2)cc1NC(=O)CCCCCC(=O)NO ; log10 IC50 = 0.04

Data point: O=C(CCCCCC(=O)Nc1ccc(O)c(C(=O)Nc2ccc(Cl)c(C(F)(F)F)c2)c1)NO ; log10 IC50 = 0.54

Data point: C#Cc1cccc(NC(=O)c2cc(NC(=O)CCCCCC(=O)NO)c(OC)cc2O)c1 ; log10 IC50 = 0.27

Data point: O=C(CCCCCC(=O)Nc1ccc(O)c(C(=O)Nc2ccc(Cl)c(Cl)c2)c1)NO ; log10 IC50 = 0.56

Data point: C#Cc1cccc(NC(=O)c2cccc(NC(=O)CCCCCC(=O)NO)c2)c1 ; log10 IC50 = 0.51

Data point: O=C(CCCCCC(=O)Nc1ccc(O)c(C(=O)Nc2ccccc2)c1)NO ; log10 IC50 = 0.28

Data point: O=C(CCCCCC(=O)Nc1ccc(O)c(C(=O)Nc2ccc(OCc3cccc(F)c3)c(Cl)c2)c1)NO ; log10 IC50 = 0.48

Data point: C#Cc1cccc(NC(=O)c2cc(NC(=O)CCCCCC(=O)NO)ccc2O)c1 ; log10 IC50 = 0.61

Data point: O=C(CCCCCC(=O)Nc1ccc(O)c(C(=O)Nc2ccc(F)c(Cl)c2)c1)NO ; log10 IC50 = 0.48

Data point: O=C(CCCCCC(=O)Nc1ccc(O)c(C(=O)Nc2ccc(F)c(F)c2)c1)NO ; log10 IC50 = 0.78

Data point: C#Cc1cccc(NC(=O)c2cc(NC(=O)CCCCCC(=O)NO)ccc2OC)c1 ; log10 IC50 = -0.25

Data point: O=C(CCCCCC(=O)Nc1ccc(O)c(C(=O)Nc2cccc(F)c2)c1)NO ; log10 IC50 = 0.56

###

# System: HL-60
# MEASUREMENT_NOTES: Antiproliferative activity against human HL60 cells after 48 hrs by MTT assay
# Assay type: functional, cell-based
# RECORDED_CONDITIONS: HL-60, 48 h
READOUT_NAME: IC50

Data point: O=C(CCCCCC(=O)Nc1ccc(O)c(C(=O)Nc2cccc(F)c2)c1)NO ; IC50 = > 100 µM

Data point: O=C(CCCCCC(=O)Nc1ccc(O)c(C(=O)Nc2ccc(OCc3cccc(F)c3)c(Cl)c2)c1)NO ; IC50 = > 100 µM

Data point: O=C(CCCCCC(=O)Nc1ccc(O)c(C(=O)Nc2ccc(F)c(F)c2)c1)NO ; IC50 = > 100 µM

Data point: O=C(CCCCCC(=O)Nc1ccc(O)c(C(=O)Nc2ccccc2)c1)NO ; IC50 = 20.3 µM

Data point: O=C(CCCCCC(=O)Nc1ccc(O)c(C(=O)Nc2ccc(Cl)c(C(F)(F)F)c2)c1)NO ; IC50 = > 100 µM

###

# TARGET_DESC: UniProt P00533
# Sequence (P00533 whole entry): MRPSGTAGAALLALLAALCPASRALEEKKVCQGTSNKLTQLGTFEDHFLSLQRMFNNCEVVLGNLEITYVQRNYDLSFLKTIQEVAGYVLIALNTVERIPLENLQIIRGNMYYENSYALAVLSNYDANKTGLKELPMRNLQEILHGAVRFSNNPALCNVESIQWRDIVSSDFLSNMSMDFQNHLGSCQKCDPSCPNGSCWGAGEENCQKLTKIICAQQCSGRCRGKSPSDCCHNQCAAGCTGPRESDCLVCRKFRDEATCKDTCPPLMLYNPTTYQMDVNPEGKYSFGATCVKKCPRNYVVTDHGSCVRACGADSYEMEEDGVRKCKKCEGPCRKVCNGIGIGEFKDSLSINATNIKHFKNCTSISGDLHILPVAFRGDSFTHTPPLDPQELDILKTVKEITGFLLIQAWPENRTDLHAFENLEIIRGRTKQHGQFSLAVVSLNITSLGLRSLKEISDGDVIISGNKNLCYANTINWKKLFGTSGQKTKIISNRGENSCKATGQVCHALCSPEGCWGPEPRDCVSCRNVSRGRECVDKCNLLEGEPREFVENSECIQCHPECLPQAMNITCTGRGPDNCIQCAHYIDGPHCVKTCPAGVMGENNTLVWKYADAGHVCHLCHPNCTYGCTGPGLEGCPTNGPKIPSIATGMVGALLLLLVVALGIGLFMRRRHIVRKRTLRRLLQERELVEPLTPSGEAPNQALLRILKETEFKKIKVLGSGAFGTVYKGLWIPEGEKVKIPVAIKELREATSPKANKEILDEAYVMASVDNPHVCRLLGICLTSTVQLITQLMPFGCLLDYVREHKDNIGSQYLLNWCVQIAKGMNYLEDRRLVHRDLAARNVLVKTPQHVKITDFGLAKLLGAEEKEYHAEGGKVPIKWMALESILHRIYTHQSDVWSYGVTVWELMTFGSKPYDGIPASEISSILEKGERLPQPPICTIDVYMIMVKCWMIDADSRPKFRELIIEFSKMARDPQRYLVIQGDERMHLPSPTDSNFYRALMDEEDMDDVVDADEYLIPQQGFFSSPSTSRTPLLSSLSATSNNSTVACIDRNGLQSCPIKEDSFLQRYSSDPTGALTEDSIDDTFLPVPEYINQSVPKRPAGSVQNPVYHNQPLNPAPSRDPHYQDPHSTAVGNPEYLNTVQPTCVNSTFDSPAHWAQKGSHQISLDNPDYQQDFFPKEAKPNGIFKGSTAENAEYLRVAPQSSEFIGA
# MEASUREMENT_NOTES: Inhibition of EGFR derived from human A431 cell membrane assessed as inhibition of poly-Glu-Tyr phosphorylation after 30 mins by ELISA assay
Kindly apply the following: Y if IC50 is less than 2000 nM, N in every other case.

Q: Lab note: confirm whether the reported IC50 for this compound is below 2000 nM, equality not counting. compound: C#Cc1cccc(NC(=O)c2cc(OCCCCCCC(=O)NO)ccc2O)c1
Result: Y

Q: Lab note: confirm whether the reported IC50 for this compound is below 2000 nM, equality not counting. compound: O=C(CCCCCC(=O)Nc1ccc(O)c(C(=O)Nc2ccc(F)c(F)c2)c1)NO
Result: N

Q: Lab note: confirm whether the reported IC50 for this compound is below 2000 nM, equality not counting. compound: C#Cc1cccc(NC(=O)c2cc(NC(=O)CCCCCC(=O)NO)ccc2OC)c1
Result: N

Q: Lab note: confirm whether the reported IC50 for this compound is below 2000 nM, equality not counting. compound: C#Cc1cccc(NC(=O)c2cccc(NC(=O)CCCCCC(=O)NO)c2)c1
Result: N

Q: Lab note: confirm whether the reported IC50 for this compound is below 2000 nM, equality not counting. compound: C#Cc1cccc(NC(=O)c2cc(NC(=O)CCCCCC(=O)NO)c(OC)cc2O)c1
Result: Y

Q: Lab note: confirm whether the reported IC50 for this compound is below 2000 nM, equality not counting. compound: O=C(CCCCCC(=O)Nc1ccc(O)c(C(=O)Nc2ccc(Cl)c(C(F)(F)F)c2)c1)NO
Result: Y

Q: Lab note: confirm whether the reported IC50 for this compound is below 2000 nM, equality not counting. compound: O=C(CCCCCC(=O)Nc1ccc(O)c(C(=O)Nc2cccc(F)c2)c1)NO
Result: Y

Q: Lab note: confirm whether the reported IC50 for this compound is below 2000 nM, equality not counting. compound: O=C(CCCCCC(=O)Nc1ccc(O)c(C(=O)Nc2cccc(C(F)(F)F)c2)c1)NO
Result: N

Q: Lab note: confirm whether the reported IC50 for this compound is below 2000 nM, equality not counting. compound: O=C(CCCCCC(=O)Nc1ccc(O)c(C(=O)Nc2ccc(Cl)c(Cl)c2)c1)NO
Result: Y

Q: Lab note: confirm whether the reported IC50 for this compound is below 2000 nM, equality not counting. compound: O=C(CCCCCC(=O)Nc1ccc(O)c(C(=O)Nc2ccccc2)c1)NO
Result: N

Q: Lab note: confirm whether the reported IC50 for this compound is below 2000 nM, equality not counting. compound: C#Cc1cccc(NC(=O)c2cc(NC(=O)CCCCCC(=O)NO)ccc2O)c1
Result: N

Q: Lab note: confirm whether the reported IC50 for this compound is below 2000 nM, equality not counting. compound: C#Cc1cccc(NC(=O)c2cc(NC(=O)CCCCCCC(=O)NO)ccc2O)c1
Result: N

Q: Lab note: confirm whether the reported IC50 for this compound is below 2000 nM, equality not counting. compound: O=C(CCCCCC(=O)Nc1ccc(O)c(C(=O)Nc2ccc(OCc3cccc(F)c3)c(Cl)c2)c1)NO
Result: Y

Q: Lab note: confirm whether the reported IC50 for this compound is below 2000 nM, equality not counting. compound: O=C(CCCCCC(=O)Nc1ccc(O)c(C(=O)Nc2ccc(F)c(Cl)c2)c1)NO
Result: N
